- assay-name: Encapsulation efficiency (RiboGreen), particle size and PDI (Zetasizer Nano ZS) of LNPs
- Format: physicochemical
- condition-parameters: PEG-less mRNA-LNP, unmodified method, 27.4/50/22.6 (FIG. 6)
measure-name: encapsulation efficiency

CCCCCCCCC(CCCCCC)C(=O)OCCCCCC(CCCCCSCC(CCCCCC)OC(=O)CCC1CCCCC1)N(C)CCCCO (stereo not shown)	low
CCCCCCCC(=O)OC(CCCCCC)CSCCCCCC(CCCCCSCC(CCCCCC)OC(=O)CCCCCCC)N(C)CCCCO (stereo not shown)	low
CCCCCCC(CSCCCCCC(CCCCCSCC(CCCCCC)OC(=O)CCC1CCCCC1)N(C)CCCCO)OC(=O)CCC1CCCCC1 (stereo not shown)	low
CCCCCCCCCC(=O)OC(CCCCC1(CCCCC(CSC2CCCCC2)OC(=O)CCCCCCCCC)OCC(CCN(C)C)O1)CSC1CCCCC1 (stereo not shown)	low
